biological target: human glucagon receptor (human) (UniProt P47871); test: cell-based or functional assay
Sequence (P47871 26-477): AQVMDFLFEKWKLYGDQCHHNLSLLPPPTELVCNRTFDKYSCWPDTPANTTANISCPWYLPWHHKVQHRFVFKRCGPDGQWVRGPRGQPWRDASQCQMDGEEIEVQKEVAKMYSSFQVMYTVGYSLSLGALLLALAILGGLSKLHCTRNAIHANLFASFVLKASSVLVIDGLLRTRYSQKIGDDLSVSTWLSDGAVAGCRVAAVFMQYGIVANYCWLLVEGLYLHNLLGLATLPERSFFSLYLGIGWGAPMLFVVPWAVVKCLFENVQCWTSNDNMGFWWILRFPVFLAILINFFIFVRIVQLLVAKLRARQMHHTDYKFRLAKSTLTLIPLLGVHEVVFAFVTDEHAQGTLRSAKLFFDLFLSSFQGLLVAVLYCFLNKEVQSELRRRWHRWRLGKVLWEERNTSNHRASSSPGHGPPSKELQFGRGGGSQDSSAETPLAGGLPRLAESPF
Starred links: 1 amine or outer side, 2 acyl side, 3 side chain; linkers in the order of their positions; H or OH if unused. Non-standard residues stand in square brackets, D forms with d. Groups on a side chain read outwards from the residue. No end group written: not given here. *: point of attachment. C20 diacid = O=C(O)CCCCCCCCCCCCCCCCCCC(=O)*; αMePhe(2-F) = C[C@](N)(Cc1ccccc1F)C(=O)O; γGlu = O=C(O)[C@H](CCC(=O)[*:2])N[*:1]; αMeL = CC(C)C[C@](C)(N)C(=O)O; AEEA = NCCOCCOCC(=O)O; Aib = CC(C)(N)C(=O)O
Measurement type: cAMP Rel EC50 (1% HSA)
State the value with its unit after it.

# Binder, cAMP Rel EC50 (1% HSA)
measured = [
    ("YXQGTFTSDXSQXLDXKAQXQFIEXLIAXGPSSGEPPPSGSEE (not fully specified; Aib, 4Pal, Orn, Me4Pal, αMeY; lipidated Lys; C-terminal amide; synthetic construct; SITE 2: note = 2-Aminoisobutyric Acid; SITE 10: note = 3-(4-Pyridyl)-L-alanine; SITE 13: note = alpha-methyl-leucine; SITE 16: note = L-ornithine; SITE 17: note = Lysine is chemically modified through conjugation of the epsilon-amino group of the Lysine side chain with D-Glutami) [Example 1106]", "1030 nM"),
    ("Y[Aib]QGT[αMePhe(2-F)]TSDYSILLDKQAAKEFIEYLIEGGPSSGAPPPSEG-NH2 (not fully specified (residue 20)) [Example 340]", "647 nM"),
    ("YXQGTFTSDXSQXLDXKAQXAFIQXLIEGGPSSGAPPPSGSEEE (non-natural residues, acylated Lys (γGlu-C18 diacid), C-terminal amide; synthetic construct; SITE 2: note = 2-Aminoisobutyric Acid; SITE 10: note = 3-(4-Pyridyl)-L-alanine; SITE 13: note = alpha-methyl-leucine; SITE 16: note = L-ornithine; SITE 17: note = Lysine is chemically modified through conjugation of the epsilon-amino group of the Lysine side chain with D-Glutami) [Example 1073]", "1490 nM"),
    ("YXQGTFTSDXSQXLDKKAQXAFIEYLLEAGPSSGAPPPSGT (synthetic construct; SITE 2: note = 2-Aminoisobutyric Acid; SITE 10: note = 3-(4-Pyridyl)-L-alanine; SITE 13: note = alpha-methyl-leucine; SITE 17: note = Lysine is chemically modified through conjugation of the epsilon-amino group of the Lysine side chain with (2-[2-(2-Amino-ethoxy)-ethoxy]-acetyl)) [Example 823]", "1410 nM"),
    ("YXQGTFTSDXSQXLDXKAQXAFIEYLIQXGPSSGEPPPSGSEE (non-natural residues; lipidated Lys AEEA-γGlu-C18 diacid; C-term amide; synthetic construct; SITE 2: note = 2-Aminoisobutyric Acid; SITE 10: note = 3-(4-Pyridyl)-L-alanine; SITE 13: note = alpha-methyl-leucine; SITE 16: note = L-ornithine; SITE 17: note = Lysine is chemically modified through conjugation of the epsilon-amino group of the Lysine side chain with (2-[2-(2-) [Example 1096]", "397 nM"),
]

Task: Return the recorded cAMP Rel EC50 (1% HSA) value; entry: Y[Aib]QGTFTSDYSI[αMeL]LDKQAAK([AEEA-AEEA-γGlu-C20 diacid])QFVEWLLAGGPSSGEPPPGEG-NH2 [Example 320]
Result: 1170 nM

Task: Return the recorded cAMP Rel EC50 (1% HSA) value; entry: Y[Aib]QGTFTSDYSK[αMeL]LDKKAQQAFIEYLLAGGPSSGEPPPSGE-NH2 (not fully specified (residue 17)) [Example 344]
Result: 1440 nM

Task: Return the recorded cAMP Rel EC50 (1% HSA) value; entry: YXQGTFTSDXSQXLDKKAQXAFIEYLIAGGPSSGAPPPSGE (non-natural residues; lipidated Lys; C-terminal amide; synthetic construct; SITE 2: note = 2-Aminoisobutyric Acid; SITE 10: note = 3-(4-Pyridyl)-L-alanine; SITE 13: note = alpha-methyl-leucine; SITE 17: note = Lysine is chemically modified through conjugation of the epsilon-amino group of the Lysine side chain with D-Glutamic acid-(gamma-Glu)-CO-(CH2)16) [Example 1085]
Result: 1370 nM

Task: Return the recorded cAMP Rel EC50 (1% HSA) value; entry: YXQGTXTSDXSILLDKKAQXAFIEYLEEGGPSSGAPPPEGTE (synthetic construct; SITE 2: note = 2-Aminoisobutyric Acid; SITE 6: note = alpha-methyl-2-fluoro-L-phenylalanine; SITE 10: note = 3-(4-Pyridyl)-L-alanine; SITE 17: note = Lysine is chemically modified through conjugation of the epsilon-amino group of the Lysine side chain with (gamma-Glu)2-CO-(CH2)1) [Example 659]
Result: 735 nM

Task: Return the recorded cAMP Rel EC50 (1% HSA) value; entry: YXQGTXTSDXXIXLDXKAQXXFIEXLQEGGPSSGEPPPEGTEE (acyl linker with epsilon-Lys; synthetic construct; SITE 2: note = 2-Aminoisobutyric Acid; SITE 6: note = alpha-methyl-2-fluoro-L-phenylalanine; SITE 10: note = 3-(4-Pyridyl)-L-alanine; SITE 11: note = alpha-methyl-L-serine; SITE 13: note = alpha-methyl-leucine; SITE 16: note = L-ornithine; SITE 17: note = Lysine is chemically mo) [Example 656]
Result: 662 nM

Task: Return the recorded cAMP Rel EC50 (1% HSA) value; entry: YXQGTXTSDXXIXLDXKAQXEFIEXLIEGGPSSGEPPPGGE (non-natural residues; lipidated Lys AEEA-γGlu-C18 diacid; C-term amide; synthetic construct; SITE 2: note = 2-Aminoisobutyric Acid; SITE 6: note = alpha-methyl-2-fluoro-L-phenylalanine; SITE 10: note = 3-(4-Pyridyl)-L-alanine; SITE 11: note = alpha-methyl-L-serine; SITE 13: note = alpha-methyl-leucine; SITE 16: note = L-ornithine; SITE 17: note = Lysine is chemically mo) [Example 1145]
Result: 148 nM

Task: Return the recorded cAMP Rel EC50 (1% HSA) value; entry: YXQGTFTSDXSQXLDXKAQXQFIEXLLAGGPSSGAPPPSGSEEE (Lys acylated γGlu-C18 diacid; non-natural residues; C-terminal amide; synthetic construct; SITE 2: note = 2-Aminoisobutyric Acid; SITE 10: note = 3-(4-Pyridyl)-L-alanine; SITE 13: note = alpha-methyl-leucine; SITE 16: note = L-ornithine; SITE 17: note = Lysine is chemically modified through conjugation of the epsilon-amino group of the Lysine side chain with D-Glutami) [Example 1084]
Result: 1390 nM

Task: Return the recorded cAMP Rel EC50 (1% HSA) value; entry: Y[Aib]QGTFTSDYSK[αMeL]LDKKAQQAFIEYLIAGGPSSGEPPPSGD-NH2 (not fully specified (residue 17)) [Example 337]
Result: 2950 nM

Task: Return the recorded cAMP Rel EC50 (1% HSA) value; entry: YXQGTFTSDXXQXLDXKAQXQFIQXLIEXGPSSGAPPPSGGGE (not fully specified; synthetic construct; SITE 2: note = 2-Aminoisobutyric Acid; SITE 10: note = 3-(4-Pyridyl)-L-alanine; SITE 11: note = alpha-methyl-L-serine; SITE 13: note = alpha-methyl-leucine; SITE 16: note = L-ornithine; SITE 17: note = Lysine is chemically modified through conjugation of the epsilon-amino group) [Example 1137]
Result: 663 nM

Task: Return the recorded cAMP Rel EC50 (1% HSA) value; entry: Y[Aib]QGTFTSDYSI[αMeL]LDKQAAK([AEEA-AEEA-γGlu-C20 diacid])QFVEWLIA[Aib]GPSSGEPPPAEG-NH2 [Example 334]
Result: 2070 nM

Task: Return the recorded cAMP Rel EC50 (1% HSA) value; entry: YXQGTXTSDXXILLDXKAQXXFIEXLQEGGPSSGEPPPEGAE (synthetic construct; SITE 2: note = 2-Aminoisobutyric Acid; SITE 6: note = alpha-methyl-2-fluoro-L-phenylalanine; SITE 10: note = 3-(4-Pyridyl)-L-alanine; SITE 11: note = alpha-methyl-L-serine; SITE 16: note = L-ornithine; SITE 17: note = Lysine is chemically modified through conjugation of the epsi) [Example 546]
Result: 225 nM

Task: Return the recorded cAMP Rel EC50 (1% HSA) value; entry: YXQGTFTSDXSQXLDXKAQXQFIQXLIAXGPSSGEPPPSGGGE (Aib, 4Pal, αMeL, Orn, Me4Pal, αMeY; acylated lysine; amide; synthetic construct; SITE 2: note = 2-Aminoisobutyric Acid; SITE 10: note = 3-(4-Pyridyl)-L-alanine; SITE 13: note = alpha-methyl-leucine; SITE 16: note = L-ornithine; SITE 17: note = Lysine is chemically modified through conjugation of the epsilon-amino group of the Lysine side chain with D-Glutami) [Example 1128]
Result: 869 nM

Measured values drawn from patent US20240270821A1 for this set.
